- System: MS2 coat protein
- PROCEDURE DETAILS: apparent KD of MS2 coat protein; designed switch direction (-1 OFF switch, 1 ON switch): 1; higher = weaker reporter binding
- CONDITION: input ligand: FMN 200 uM
Everything with apparent KD of MS2 coat protein lower than 50 nM is Criterion not met; everything else, including exactly 50 nM, is Criterion met.

CHAIN SEQUENCE	EXPERIMENTAL TARGET	LABEL VALUE
UUAGAAUACGCAGGAUAUCGAUGAUUGAUAGUACGAGAAGGGCGAACAUGAGGAUCACCCAUGUAUAUUAAUUUGAGUUUGAAU [JR_SSNG1_Sub076] (Eterna round: R96, puzzle: Same State NG 1)	MS2 coat protein	Criterion met
AGGAGUAUCUGACAUGAGGAUCACCCAUGUUCCAUUCUACGAUAGGAUAUCGAAAUACAAAGACGCGAGAAGGAUCAGAACCUA [Eternabot solution 48] (Eterna round: R96, puzzle: Same State NG 3)	MS2 coat protein	Criterion not met
UAAGCAUUCCUAGGAUAUGUAGGAUAUGUACAUGAGGAUCACCCAUGUCUACCAGAGACAGAAGGACAGAAGGAGGAAUGCUUC [pwkr ssNG2 2FMN 1F5s.8] (Eterna round: R96, puzzle: Same State NG 2)	MS2 coat protein	Criterion not met
ACAUGAGAGUGAGGAUAUAUUGUACCUACAUGUGACAUGAGGAUCACCCAUGUGGUAAGUAUGACAUAGAAGGCACAGAUAUGU [Equivalance 80 - Jieux - Same State NG 2] (Eterna round: R96, puzzle: Same State NG 2)	MS2 coat protein	Criterion not met
CUCAACAACACAGGAUAUCCAGGGAAAAGAACUGGAGAAGGGUGACCAACAUGAGGAUCACCCAUGUGAUAGCUAGGCUGUCUG [Lararariso] (Eterna round: R96, puzzle: Same State NG 1)	MS2 coat protein	Criterion not met
UUUGAAUUGCAAGGAUAUUGAUAACAUGAGGAUCACCCAUGUAAUUGUUCGAGUUAGAUUAGUUACAAGAAGGUGCUAUUGUUU [JR_SSNG2_Sub039] (Eterna round: R96, puzzle: Same State NG 2)	MS2 coat protein	Criterion met
GCUCGGCUGAUGGCCCACAUGAGGAUCACCCAUGUGACUGGGCAGGAUAUCUAGAUUCAGGAUGUAGAGAAGGGCCUGCCGAGC [SameState NG3 #40] (Eterna round: R96, puzzle: Same State NG 3)	MS2 coat protein	Criterion met
AUACAUAUCAGAGGAUAUCACGUCGUUUAGACGUGAGAAGGCUGAUCACACAUGAAUAUUAAUACAUGAGGAUCACCCAUGUAU [SSNG1/14-A3] (Eterna round: R96, puzzle: Same State NG 1)	MS2 coat protein	Criterion not met
GUUACAUGAGGAUCACCCAUGUAUGUGUGGGAGUAAGUGUCUUAGGAUAUCUAUCAUUUAAUGUAAGAGAAGGAAGAUUGUUGU [JMF's solution 97] (Eterna round: R96, puzzle: Same State NG 3)	MS2 coat protein	Criterion met
AUAGUUUCCGAAGGAUAUGAUGAGGAUCACCCAUCAGAAGGUUGGCUAUUGGGCGGACAUGAGGAUCACCCAUGUCUUUCUGUU (Eterna round: R96, puzzle: Same State NG 1)	MS2 coat protein	Criterion not met
AAAGAAGAAAGACAGGAUAUGGAUGGGUAAACAUGAGGAUCACCCAUGUAUAAGAAAGAAAGAAACCAGAAGGGUCAAAAGAAAA [Darius III] (Eterna round: R96, puzzle: Same State 2)	MS2 coat protein	Criterion met
GGUAGGUUACUACCAAACAUGAGGAUCACCCAUGUAAGUGGGAAGGAUAUGGUACCUAAAAGGUACCAGAAGGUCCAAUUAAUU [Mat - Same State NG 3 - JL Mod - D98] (Eterna round: R96, puzzle: Same State NG 3)	MS2 coat protein	Criterion met
CUACGCGCCGCAGGAUAUGCCGACCCGUGUUGAGCAGAAGGGCGCAACAUGAGGAUCACCCAUGUUGAAAGAGCGCAAAAUUAA [Zaesre] (Eterna round: R96, puzzle: Same State NG 1)	MS2 coat protein	Criterion not met
GGUAUCGGCACAGGAUAUGCUAUCCUUUGGGUAGCAGAAGGGUGGAACAUGAGGAUCACCCAUGUGGUGCCAGGGCGUGAGCCC [JL SSNG1 1.88] (Eterna round: R96, puzzle: Same State NG 1)	MS2 coat protein	Criterion met
GUAACAUGACGAGGAUAUGGAACAUGAGGAUCACCCAUGUAUGUUCCAUAACGCGAAUGACGAAUCCAGAAGGCGUCGUGAAUG [Mat - Same State NG 2 - JL mod - D29] (Eterna round: R96, puzzle: Same State NG 2)	MS2 coat protein	Criterion not met
